- target-system: Flag/GST-tagged recombinant human B-Raf (Homo sapiens, UniProt P15056)
- Construct: Flag; GST; made in house; host or cells: Sf9 insect cells (B-Raf); E. coli (MEK1-GST)
- Sequence (P15056 whole entry): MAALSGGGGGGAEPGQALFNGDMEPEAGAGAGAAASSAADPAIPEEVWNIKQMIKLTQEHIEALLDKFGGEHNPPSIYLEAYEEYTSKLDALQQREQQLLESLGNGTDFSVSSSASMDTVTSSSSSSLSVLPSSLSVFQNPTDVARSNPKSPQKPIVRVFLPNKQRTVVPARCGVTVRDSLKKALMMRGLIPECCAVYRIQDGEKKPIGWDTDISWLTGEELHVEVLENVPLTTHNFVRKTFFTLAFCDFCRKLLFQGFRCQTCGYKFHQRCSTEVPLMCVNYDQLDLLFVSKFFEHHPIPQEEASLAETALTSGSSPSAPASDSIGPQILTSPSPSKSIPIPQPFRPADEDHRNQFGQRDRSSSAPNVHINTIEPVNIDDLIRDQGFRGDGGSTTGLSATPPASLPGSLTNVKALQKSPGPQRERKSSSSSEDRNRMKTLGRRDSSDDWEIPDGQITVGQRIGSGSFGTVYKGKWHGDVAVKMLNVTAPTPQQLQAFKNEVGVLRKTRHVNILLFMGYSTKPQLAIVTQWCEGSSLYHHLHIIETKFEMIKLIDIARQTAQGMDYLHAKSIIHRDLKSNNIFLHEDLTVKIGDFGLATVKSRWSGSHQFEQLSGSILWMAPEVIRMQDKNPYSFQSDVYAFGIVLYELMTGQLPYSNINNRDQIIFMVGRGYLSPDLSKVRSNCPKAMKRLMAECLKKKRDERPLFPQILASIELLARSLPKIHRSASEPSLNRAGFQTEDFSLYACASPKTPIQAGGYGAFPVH
- assay-name: B-Raf kinase assay (phosphorylation of GST-MEK1, phospho-MEK1 antibody/Europium detection)
- Format: biochemical
- condition-parameters: B-Raf IC50 Data for compounds of Formula A; read-out: Mean IC50
- Protocol: B-Raf1 Kinase Assay Procedure: B-Raf-1 is used to phosphorylate GST-MEK1. • 1. Assay Dilution Buffer (ADB): 20 mM MOPS, pH 7.2, 25 mM β-glycerol phosphate, 5 mM EGTA, 1 mM sodium orthovanadate, 1 mM dithiothreitol, 0.01% Triton X-100. • 2. Magnesium/ATP Cocktail: ADB solution (minus Triton X-100) plus 200 μM cold ATP and 40 mM magnesium chloride. • 4. […] B-Raf Assay Procedure: • 1. […] Read plates in Wallac Victor model Plate Reader. • 13. The % inhibition was determined for each compound concentration.
pIC50: −log10 of the molar value.
reported-endpoint: pIC50

> print(dat)
                                   molecule  value.qualifier  numeric.value
1  CN1C[C@@H]2C[C@H]1CN2c1cc(F)ccc1-c1ccnc2c(-c3cccc4[nH]ncc34)c(-c3ccncc3)nn12                =           9.10
2  CC(C)(C)OC(=O)N1C[C@@H]2C[C@H]1CN2Cc1ccc(-c2ccnc3c(-c4cccc5[nH]ncc45)c(-c4ccncc4)nn23)cc1                =           7.92
3  Fc1cc(N2C[C@@H]3C[C@H]2CN3)ccc1-c1ccnc2c(-c3ccc(F)c4[nH]ncc34)c(-c3ccncc3)nn12                >           9.52
4  CCN1C[C@@H]2C[C@H]1CN2c1ccc(-c2ccnc3c(-c4ccc(F)c(O)c4)c(-c4ccncc4)nn23)cc1                =           9.30
5  c1cc(CN2C[C@@H]3C[C@H]2CN3)cc(-c2ccnc3c(-c4cccc5[nH]ncc45)c(-c4ccncc4)nn23)c1                =           7.38
6  COc1cc(-c2c(-c3ccncc3)nn3c(-c4ccc(NC5CN6CCC5CC6)nc4)ccnc23)ccc1Cl (stereo not shown)                =           8.22
7  CCN1C2CCC1CC(c1ccnc3c(-c4ccc(C#N)c(O)c4)c(-c4ccncc4)nn13)C2 (stereo not shown)                =           7.24

====

- target-system: Flag/GST-tagged recombinant human B-Raf (Homo sapiens)
- Construct: Flag; GST; made in house; host or cells: Sf9 insect cells (B-Raf); E. coli (MEK1-GST)
- assay-name: B-Raf kinase assay (phosphorylation of GST-MEK1, phospho-MEK1 antibody/Europium detection)
- Format: biochemical
- condition-parameters: B-Raf IC50 Data for compounds of Formula A; read-out: Mean IC50
- Procedure: B-Raf1 Kinase Assay Procedure: B-Raf-1 is used to phosphorylate GST-MEK1. • 1. Assay Dilution Buffer (ADB): 20 mM MOPS, pH 7.2, 25 mM β-glycerol phosphate, 5 mM EGTA, 1 mM sodium orthovanadate, 1 mM dithiothreitol, 0.01% Triton X-100. • 2. Magnesium/ATP Cocktail: ADB solution (minus Triton X-100) plus 200 μM cold ATP and 40 mM magnesium chloride. • 4. […] B-Raf Assay Procedure: • 1. […] Read plates in Wallac Victor model Plate Reader. • 13. The % inhibition was determined for each compound concentration.
Listing of recorded log10 of IC50 by entry.
reported-endpoint: log10 of IC50 (log10 of the value in nM)

> print(dat)
                                   compound  reported.endpoint  numeric.value
1  CCN1C2CCC1CC(c1ccnc3c(-c4ccc(NC=O)c(OC)c4)c(-c4ccncc4)nn13)C2 (centres unmarked) [Example 72b]      log10 of IC50           2.62
2  CC(C)(C)OC(=O)N1C[C@@H]2C[C@H]1CN2c1ccc(-c2ccn3nc(-c4ccncc4)c(-c4ccc(F)c5[nH]ncc45)c3n2)cc1 [Example 122]      log10 of IC50           1.28
3  COc1cc(-c2c(-c3ccncc3)nn3c(-c4ccc(N5C[C@@H]6C[C@H]5CN6C)cc4)ccnc23)ccc1F [Example 37]      log10 of IC50           1.32
4  c1cc(-c2c(-c3ccncc3)nn3c2nccc3[C@H]2CC[C@@H](N3C[C@@H]4C[C@H]3CO4)CC2)c2cn[nH]c2c1 [Example 154]      log10 of IC50           1.06
5  COc1cccc(-c2c(-c3ccncc3)nn3c(-c4ccc(N5C[C@@H]6C[C@H]5CN6C)cc4)ccnc23)c1 [Example 36]      log10 of IC50           0.91
6  c1cc(-c2c(-c3ccncc3)nn3c(-c4ccc(N5C[C@@H]6CC[C@H]5CN6)cc4)ccnc23)c2cn[nH]c2c1 [Example 144]      log10 of IC50          -0.22
7  CCOC(=O)N1C2CCC1CC(c1ccnc3c(-c4cccc(-c5nnco5)c4)c(-c4ccncc4)nn13)C2 (centres unmarked) [Example 91]      log10 of IC50           2.21
